Value source: PubChem BioAssay (NCI)

# System: HCT-15 colon
# test_method_notes: NCI-60 one-dose screen, 48 h
# protocol_conditions: 10 µM unless noted
Compounds without any hit were thinned out: in the full panel of roughly 83,000, 20% have a hit. The source made the active and inactive calls. Rule for the calls: active = growth percent below 10; inactive = the rest.
Reply using exactly one outcome from active, inactive

Use these answered entries as a reference point.
- compound: "N#Cc1c(NC(=O)c2ccco2)[n+]([O-])c2ccccc2[n+]1[O-]"
  classification: "inactive"
- compound: "CC1=C([Se]CC(OC(=O)[C@@H](CSSC(C)(C)C)NC(=O)C(C)(C)C)C(=O)NCCCCCC(=O)OCc2ccccc2)C(=O)c2ccccc2C1=O (some centres undefined)"
  classification: "inactive"
- compound: "COC(=O)c1cc2c(/C=C3/NC(=S)NC3=O)coc2n1C"
  classification: "inactive"
- compound: "c1cc[n+](Cc2ccnc3ccccc23)cc1"
  classification: "inactive"
- compound: "COc1ccc(C(=O)COc2ccc(/C=C3\\Oc4ccc5ccccc5c4C3=O)cc2)cc1"
  classification: "inactive"
- compound: "C[C@H]1O[C@@H](O[C@H]2[C@@H](O)C[C@H](O[C@H]3[C@@H](O)C[C@H](O[C@H]4CC[C@]5(C)C6CC[C@]7(C)[C@@H](C8=CC(=O)OC8)CC[C@]7(O)C6CC[C@@H]5C4)O[C@@H]3C)O[C@@H]2C)C[C@H](O)[C@@H]1O (some centres undefined)"
  classification: "active"
- compound: "O=C1/C(=C/c2ccc(F)cc2)Cc2ccccc21"
  classification: "inactive"
- compound: "C/C(=C\\CCc1ccoc1)CC/C=C(\\C)CCCC1COC(=O)C1 (centres undefined)"
  classification: "inactive"

Could you now look at the following compound, please?
Q) Per the records of this test, what outcome belongs to COc1cc(/C=C/C(=O)C(C(=O)/C=C/c2ccc(OC(=O)CCNC34CC5CC(CC(C5)C3)C4)c(OC)c2)C(=O)CCNC23CC4CC(CC(C4)C2)C3)ccc1OC(=O)CCNC12CC3CC(CC(C3)C1)C2 (centres undefined) ?
A) active
